target: Cholinesterase (Equus caballus); assay: Inhibition of equine serum BChE using butyrylthiocholine iodide as substrate preincubated for 2 mins followed by substrate addition and measured after 2 mins by Ellman's method; conditions: read-out: IC50
Measured parameter: pIC50
Give bare numbers, as −log10 of the molar value.

Consider the worked cases shown below.
Molecule	Measured parameter	Numeric readout
COC(=O)C1Cc2c([nH]c3ccccc23)C(c2ccccc2)N1C(=O)CCN1CCN(CCC(=O)N2C(C(=O)OC)Cc3c([nH]c4ccccc34)C2c2ccccc2)CC1 (stereo unspecified)	pIC50	5.24
COC(=O)C1Cc2c([nH]c3ccccc23)C(C)N1C(=O)CN(C)CCN(C)CC(=O)N1C(C(=O)OC)Cc2c([nH]c3ccccc23)C1C (stereo unspecified)	pIC50	5.05
COC(=O)C1Cc2c([nH]c3ccccc23)C(C)N1C(=O)CCN(C)CCN(C)CCC(=O)N1C(C(=O)OC)Cc2c([nH]c3ccccc23)C1C (stereo unspecified)	pIC50	5.77
COC(=O)c1cc2c3ccccc3n(CCCN3CCN(CCCn4c5ccccc5c5cc(C(=O)OC)nc(C)c54)CC3)c2c(C)n1	pIC50	6.15
COC(=O)C1Cc2c([nH]c3ccccc23)C(C)N1C(=O)CCCN1CCN(CCCC(=O)N2C(C(=O)OC)Cc3c([nH]c4ccccc34)C2C)CC1 (stereo unspecified)	pIC50	5.55

Turning now to a further molecule:
Exercise: Indicate its recorded pIC50; the molecule in question is "COC(=O)c1cc2c3ccccc3n(CCCN(C)CCN(C)CCCn3c4ccccc4c4cc(C(=O)OC)nc(-c5ccccc5)c43)c2c(-c2ccccc2)n1"
Solution: 6.10

---

assay: Neurotoxicity against human SH-SY5Y cells assessed as cell viability at 5 uM after 24 hrs by MTT assay relative to control; format: toxicity, cell-based; settings: read-out: Activity
Measured parameter: viability at 24 h, 5 µM (%)
One number for each entry, in %.

These solved cases illustrate the format of a correct answer.
> print(dat)
                                   molecule  numeric.readout
1  COC(=O)C1Cc2c([nH]c3ccccc23)C(C)N1C(=O)CCN(C)CCN(C)CCC(=O)N1C(C(=O)OC)Cc2c([nH]c3ccccc23)C1C (centres undefined)             92.4
2  COC(=O)c1cc2c3ccccc3n(CCCN(C)CCN(C)CCCn3c4ccccc4c4cc(C(=O)OC)nc(-c5ccccc5)c43)c2c(-c2ccccc2)n1             93.7
3  COC(=O)C1Cc2c([nH]c3ccccc23)C(C)N1C(=O)CCCN1CCN(CCCC(=O)N2C(C(=O)OC)Cc3c([nH]c4ccccc34)C2C)CC1 (centres undefined)              101

Kindly review the next molecule as well.
Exercise: Retrieve viability at 24 h, 5 µM measured for COC(=O)C1Cc2c([nH]c3ccccc23)C(C)N1C(=O)CCN1CCN(CCC(=O)N2C(C(=O)OC)Cc3c([nH]c4ccccc34)C2C)CC1 (centres undefined) and print it.
Solution: 102

---

experiment: Selectivity index, ratio of IC50 for electric eel AChE to IC50 for equine serum BChE
The source made the active and inactive calls. The calls are words filed in the database; no cut-off is given here.
Measured parameter: Ratio IC50

These recorded examples may help you get a feel for the data.
Molecule	Result
COC(=O)C1Cc2c([nH]c3ccccc23)CN1 (stereo not drawn)	inactive
COC(=O)C1Cc2c([nH]c3ccccc23)C(c2ccccc2)N1C(=O)CN(C)CCN(C)CC(=O)N1C(C(=O)OC)Cc2c([nH]c3ccccc23)C1c1ccccc1 (stereo not drawn)	4.4
COC(=O)C1Cc2c([nH]c3ccccc23)C(c2ccccc2)N1 (stereo not drawn)	inactive
COC(=O)c1cc2c3ccccc3n(CCCCN(C)CCN(C)CCCCn3c4ccccc4c4cc(C(=O)OC)nc(-c5ccccc5)c43)c2c(-c2ccccc2)n1	8.7

For each listed entry, give its Ratio IC50.
1. COC(=O)C1Cc2c([nH]c3ccccc23)C(C)N1C(=O)CCN(C)CCN(C)CCC(=O)N1C(C(=O)OC)Cc2c([nH]c3ccccc23)C1C (stereo not drawn)
2. COC(=O)c1cc2c3ccccc3n(CCCN3CCN(CCCn4c5ccccc5c5cc(C(=O)OC)nc(C)c54)CC3)c2c(C)n1
3. COC(=O)c1cc2c([nH]c3ccccc32)c(C)n1
4. COC(=O)c1cc2c3ccccc3n(CCCCN(C)CCN(C)CCCCn3c4ccccc4c4cc(C(=O)OC)nc(C)c43)c2c(C)n1

Solution:
10.6
16
inactive
6.4

---

biological target: Cholinesterase (Equus caballus, UniProt P81908); assay: Inhibition of equine serum BChE using butyrylthiocholine iodide as substrate preincubated for 2 mins followed by substrate addition and measured after 2 mins by Ellman's method; settings: read-out: IC50
Sequence (P81908 whole entry): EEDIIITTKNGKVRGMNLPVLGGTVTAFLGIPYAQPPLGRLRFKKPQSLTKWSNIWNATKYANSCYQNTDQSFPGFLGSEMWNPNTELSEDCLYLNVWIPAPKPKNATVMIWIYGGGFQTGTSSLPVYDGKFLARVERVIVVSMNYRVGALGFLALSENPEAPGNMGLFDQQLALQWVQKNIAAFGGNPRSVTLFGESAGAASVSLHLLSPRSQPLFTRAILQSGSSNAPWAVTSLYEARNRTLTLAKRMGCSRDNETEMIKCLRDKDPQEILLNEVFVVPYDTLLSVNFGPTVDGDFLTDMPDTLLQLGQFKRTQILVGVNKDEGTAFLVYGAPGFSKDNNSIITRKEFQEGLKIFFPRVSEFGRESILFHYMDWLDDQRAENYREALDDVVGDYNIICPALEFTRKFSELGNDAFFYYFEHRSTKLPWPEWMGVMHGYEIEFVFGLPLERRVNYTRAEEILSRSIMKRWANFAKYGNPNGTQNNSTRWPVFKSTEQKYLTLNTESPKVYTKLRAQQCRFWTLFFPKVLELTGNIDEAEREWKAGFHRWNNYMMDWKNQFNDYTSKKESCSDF
Measured parameter: IC50 (µM)
One number for each entry, in µM.

Compound	IC50, µM
COC(=O)c1cc2c3ccccc3n(CCCCN3CCN(CCCCn4c5ccccc5c5cc(C(=O)OC)nc(C)c54)CC3)c2c(C)n1	9.7
COC(=O)C1Cc2c([nH]c3ccccc23)C(C)N1C(=O)CN1CCN(CC(=O)N2C(C(=O)OC)Cc3c([nH]c4ccccc34)C2C)CC1 (configuration not stated)	20.9
COC(=O)C1Cc2c([nH]c3ccccc23)C(c2ccccc2)N1C(=O)CN(C)CCN(C)CC(=O)N1C(C(=O)OC)Cc2c([nH]c3ccccc23)C1c1ccccc1 (configuration not stated)	14.6
COC(=O)C1Cc2c([nH]c3ccccc23)CN1C(=O)CCN(C)CCN(C)CCC(=O)N1Cc2[nH]c3ccccc3c2CC1C(=O)OC (configuration not stated)	27
COC(=O)c1cc2c3ccccc3n(CCCCN(C)CCN(C)CCCCn3c4ccccc4c4cc(C(=O)OC)nc(-c5ccccc5)c43)c2c(-c2ccccc2)n1	1.8
COC(=O)c1cc2c3ccccc3n(CCCCN(C)CCN(C)CCCCn3c4ccccc4c4cc(C(=O)OC)nc(C)c43)c2c(C)n1	1.5

API: the following record is the query input.
Exercise: Annotate the compound "COC(=O)c1cc2c3ccccc3n(CCCN(C)CCN(C)CCCn3c4ccccc4c4cc(C(=O)OC)nc(C)c43)c2c(C)n1" with its measured IC50.
Solution: 15.4

---

target: UniProtKB O42275; assay: Inhibition of electric eel AChE using acetylthiocholine iodide as substrate preincubated for 2 mins followed by substrate addition and measured after 2 mins by Ellman's method; settings: read-out: IC50
Sequence (O42275 whole entry): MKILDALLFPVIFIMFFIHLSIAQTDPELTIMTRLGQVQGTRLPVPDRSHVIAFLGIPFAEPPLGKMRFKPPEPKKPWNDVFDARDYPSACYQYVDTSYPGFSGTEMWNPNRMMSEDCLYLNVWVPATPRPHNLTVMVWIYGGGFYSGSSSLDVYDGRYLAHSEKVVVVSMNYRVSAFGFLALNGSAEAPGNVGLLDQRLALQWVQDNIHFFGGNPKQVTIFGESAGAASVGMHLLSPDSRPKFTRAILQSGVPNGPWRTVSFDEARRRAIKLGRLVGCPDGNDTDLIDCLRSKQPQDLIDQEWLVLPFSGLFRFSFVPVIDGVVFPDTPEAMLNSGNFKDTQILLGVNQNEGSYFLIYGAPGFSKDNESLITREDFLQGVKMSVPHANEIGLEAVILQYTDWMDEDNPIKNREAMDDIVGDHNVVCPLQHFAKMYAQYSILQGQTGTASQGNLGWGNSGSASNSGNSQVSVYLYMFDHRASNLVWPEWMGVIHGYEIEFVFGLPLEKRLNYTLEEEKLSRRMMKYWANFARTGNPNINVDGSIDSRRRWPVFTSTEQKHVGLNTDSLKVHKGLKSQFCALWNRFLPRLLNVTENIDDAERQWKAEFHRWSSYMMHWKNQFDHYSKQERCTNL
Can you tell me pIC50 for the items I'm about to list?
Answers are plain numbers, as −log10 of the molar value.

Molecule	System tested	pIC50
COC(=O)c1cc2c3ccccc3n(CCCCN(C)CCN(C)CCCCn3c4ccccc4c4cc(C(=O)OC)nc(C)c43)c2c(C)n1	UniProtKB O42275	5.02
COC(=O)c1cc2c3ccccc3n(CCCN(C)CCN(C)CCCn3c4ccccc4c4cc(C(=O)OC)nc(C)c43)c2c(C)n1	UniProtKB O42275	4.00
COC(=O)C1Cc2c([nH]c3ccccc23)C(C)N1C(=O)CN(C)CCN(C)CC(=O)N1C(C(=O)OC)Cc2c([nH]c3ccccc23)C1C (stereo unspecified)	UniProtKB O42275	4.40
COC(=O)C1Cc2c([nH]c3ccccc23)C(C)N1C(=O)CCN(C)CCN(C)CCC(=O)N1C(C(=O)OC)Cc2c([nH]c3ccccc23)C1C (stereo unspecified)	UniProtKB O42275	4.74
COC(=O)C1Cc2c([nH]c3ccccc23)C(c2ccccc2)N1C(=O)CCN1CCN(CCC(=O)N2C(C(=O)OC)Cc3c([nH]c4ccccc34)C2c2ccccc2)CC1 (stereo unspecified)	UniProtKB O42275	3.31

Attention now shifts to the item below.
Exercise: Return pIC50 for the following molecule: "COC(=O)c1cc2c3ccccc3n(CCCCN(C)CCN(C)CCCCn3c4ccccc4c4cc(C(=O)OC)nc(-c5ccccc5)c43)c2c(-c2ccccc2)n1"
Solution: 4.80

---

target: Amyloid-beta precursor protein (Homo sapiens) (UniProt P05067); assay: Inhibition of self-induced human amyloid beta (1 to 42) aggregation at 25 uM after 24 hrs by thioflavin-T based fluorescence assay relative to control
Sequence (P05067 whole entry): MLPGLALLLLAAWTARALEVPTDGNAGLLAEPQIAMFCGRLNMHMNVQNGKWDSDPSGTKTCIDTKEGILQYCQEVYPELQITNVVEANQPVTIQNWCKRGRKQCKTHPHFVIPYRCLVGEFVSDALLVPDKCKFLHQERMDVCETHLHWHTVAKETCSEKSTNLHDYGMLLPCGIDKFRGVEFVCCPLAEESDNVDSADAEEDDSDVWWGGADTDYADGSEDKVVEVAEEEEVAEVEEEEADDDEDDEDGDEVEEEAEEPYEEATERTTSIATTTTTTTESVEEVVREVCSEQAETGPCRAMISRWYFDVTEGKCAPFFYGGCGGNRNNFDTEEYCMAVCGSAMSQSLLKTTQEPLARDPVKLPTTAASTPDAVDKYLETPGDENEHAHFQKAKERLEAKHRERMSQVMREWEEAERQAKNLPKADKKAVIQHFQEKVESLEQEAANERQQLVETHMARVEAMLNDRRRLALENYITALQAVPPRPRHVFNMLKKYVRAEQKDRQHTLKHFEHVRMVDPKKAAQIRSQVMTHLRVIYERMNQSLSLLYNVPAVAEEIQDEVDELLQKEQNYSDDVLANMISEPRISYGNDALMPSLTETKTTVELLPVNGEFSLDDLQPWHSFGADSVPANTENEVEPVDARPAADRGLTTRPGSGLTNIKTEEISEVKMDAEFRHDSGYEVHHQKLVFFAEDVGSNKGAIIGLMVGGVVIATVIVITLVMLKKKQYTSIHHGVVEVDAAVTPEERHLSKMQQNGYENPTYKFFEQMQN
Calls of active or inactive are those of the source. The calls are words filed in the database; no cut-off is given here.
Measured parameter: inhibition

Solved cases (7 shown):
> print(dat)
                                   compound  measured.parameter    result
1  COC(=O)C1Cc2c([nH]c3ccccc23)C(C)N1C(=O)CN(C)CCN(C)CC(=O)N1C(C(=O)OC)Cc2c([nH]c3ccccc23)C1C (stereo not drawn)          inhibition     72.3%
2  COC(=O)C1Cc2c([nH]c3ccccc23)C(C)N1C(=O)CCCN1CCN(CCCC(=O)N2C(C(=O)OC)Cc3c([nH]c4ccccc34)C2C)CC1 (stereo not drawn)          inhibition     85.7%
3  COC(=O)c1cc2c3ccccc3n(CCCN3CCN(CCCn4c5ccccc5c5cc(C(=O)OC)nc(C)c54)CC3)c2c(C)n1          inhibition  inactive
4  COC(=O)C1Cc2c([nH]c3ccccc23)C(C)N1C(=O)CCN1CCN(CCC(=O)N2C(C(=O)OC)Cc3c([nH]c4ccccc34)C2C)CC1 (stereo not drawn)          inhibition     65.6%
5  COC(=O)c1cc2c3ccccc3n(CCCCN(C)CCN(C)CCCCn3c4ccccc4c4cc(C(=O)OC)nc(C)c43)c2c(C)n1          inhibition     65.5%
6  COC(=O)C1Cc2c([nH]c3ccccc23)C(C)N1C(=O)CCN(C)CCN(C)CCC(=O)N1C(C(=O)OC)Cc2c([nH]c3ccccc23)C1C (stereo not drawn)          inhibition     82.7%
7  COC(=O)c1cc2c3ccccc3n(CCCCN3CCN(CCCCn4c5ccccc5c5cc(C(=O)OC)nc(C)c54)CC3)c2c(C)n1          inhibition  inactive

Exercise: Give the reported inhibition for this compound. "COC(=O)c1cc2c3ccccc3n(CCCN(C)CCN(C)CCCn3c4ccccc4c4cc(C(=O)OC)nc(C)c43)c2c(C)n1"
Solution: inactive
